Items are presented alongside their recorded TGI.
- Tested on: RXF-631 renal
- test: NCI tumour cell line growth inhibition, 48 h

molecule | TGI
OCC(O)COc1ccc(Br)cc1 (stereo not drawn) | > 100 µM
CCCCOC1CC2(c3ccc(OC)cc3)C(=O)c3ccccc3N2O1 (stereo not drawn) | > 10 µM
O=CC1=CCCC2(C1)OCCO2 | > 100 µM

###

Catalogue of TGI values
- System: KM12 colon
- test: NCI tumour cell line growth inhibition, 48 h

smiles-text | measured-on | TGI
COc1cc(OC)cc(N2CCC(c3c(N)nc(N)nc3Cl)CC2)c1 | KM12 colon | > 100 µM
C[N+]1(C)CC=C(N2CCOCC2)CC1 | KM12 colon | > 10 µM
COc1ccc(C[C@@H]2CN(C(=O)c3ccccc3)[C@H](Cc3ccc(O)cc3)CN2C(=O)c2ccccc2)cc1Br | KM12 colon | > 100 µM
N#C/C(=C\c1ccc(CP(=O)(O)O)cc1)C(N)=O | KM12 colon | > 100 µM
